Reference for the values: PubChem BioAssay (NCI)

System: MCF7 breast
run description: NCI-60 one-dose screen, 48 h
test parameters: 10 µM unless noted
About 83,000 compounds went through this panel and 20% of them were active in at least one assay; those are over-represented in the sample as a whole. The source made the active and inactive calls. How the source made its calls: active means growth percent below 10; inactive means the rest.
Classes used: Yes = active, No = inactive

>  <smiles code>
Cn1cc(-c2ncnc3ccc(-c4cnc(Cl)c(NS(C)(=O)=O)c4)cc23)c2ccccc21

>  <answer label>
Yes

$$$$
>  <smiles code>
CN1CCC(CNc2ccc3ncc(-c4cccc(OC(F)(F)F)c4)n3n2)CC1

>  <answer label>
Yes

$$$$
>  <smiles code>
C=C1C(=O)O[C@H]2[C@H]1CC/C(Cn1cc(-c3cc(C)c(C)cc3C)nn1)=C\CC[C@@]1(C)O[C@@H]21

>  <answer label>
Yes

$$$$
>  <smiles code>
Nc1ccc(S(=O)(=O)O)c2cc(S(=O)(=O)O)cc(O)c12

>  <answer label>
No

$$$$
>  <smiles code>
CNC(=O)c1cnc(C)nc1-c1cc(C(C)(C)C)c(O)c(C(C)(C)C)c1

>  <answer label>
No

$$$$
>  <smiles code>
NC(=O)Nc1cc(-c2cccc(F)c2)sc1C(=O)N[C@H]1CCCNC1

>  <answer label>
No

$$$$
>  <smiles code>
Nc1ncnc2c1ccn2-c1cccc(NC(=O)c2ccc(N3CCOCC3)c(C(F)(F)F)c2)c1

>  <answer label>
No

$$$$
>  <smiles code>
CC12O[C@H](C[C@@H](OC(=O)CCC(=O)O)[C@H]1O)n1c3ccccc3c3c4c(c5c6ccccc6n2c5c31)C(=O)NC4=O

>  <answer label>
No

$$$$
>  <smiles code>
COc1cccc(Nc2ncnn3ccc(CN4CC[C@@H](N)[C@H](O)C4)c23)c1

>  <answer label>
No

$$$$
